// provenance: patent US6737383B1

Could you please report measured Plant response rating, Cocklebur for the items listed next?
test system: cocklebur; assay: Test B pre/postemergence cocklebur; format: in vivo, Xanthium strumarium; settings: Postemergence, Rate 500 g/ha; scale of 0 to 10 where 0 is no effect and 10 is complete control
Numbers only.

Reference set (3 entries):
CCOC(Cn1c(=O)on(C(=O)N(c2ccc(F)cc2)C(C)C)c1=O)OCC ... 2
CCOC(Cn1c(=O)on(C(=O)N(c2ccc(Cl)cc2)C(C)C)c1=O)OCC ... 0
CCOC(Cn1c(=O)on(C(=O)N(c2ccc(F)cc2F)C(C)C)c1=O)OCC ... 0

Moving on to the next molecule.
I am curious: what Plant response rating, Cocklebur value has been reported for COCn1c(=O)on(C(=O)N(c2ccccc2)C(C)C)c1=O ?
2

====

Tested on: sugar beet
Assay: Test B pre/postemergence sugar beet
Format: in vivo, Beta vulgaris
Settings: Preemergence, Rate 125 g/ha; scale of 0 to 10 where 0 is no effect and 10 is complete control
Experimental: […] At the same time, these crop and weed species were also treated with postemergence applications of test chemicals formulated in the same manner. […] Treated plants and controls were maintained in a greenhouse for twelve to sixteen days, after which all species were compared to controls and visually evaluated. […]
Recorded endpoint: Plant response rating, Sugarbeets

CCC=CCn1c(=O)on(C(=O)N(c2ccccc2)C(C)C)c1=O ... 0
CC(C)N(C(=O)n1oc(=O)n(CCN(C)C(=O)c2ccccc2)c1=O)c1ccccc1 ... 0

Hey, can you go through the list below and give me Plant response rating, Sugarbeets for every item?
1. CCOC(=O)CC(C(=O)OCC)n1c(=O)on(C(=O)N(c2ccc(Cl)cc2)C(C)C)c1=O (stereo not shown)
2. CC(C)N(C(=O)n1oc(=O)n(CCCCCl)c1=O)c1ccc(F)cc1

0
4

====

Can you tell me Plant response rating, Wheat for the items I'm about to list?
tested on: wheat; test: Test B pre/postemergence wheat; type: in vivo, Triticum aestivum; conditions: Rate 250 g/ha, Postemergence; scale of 0 to 10 where 0 is no effect and 10 is complete control
One number for each entry.

Example results:
CCc1cccc(CC)c1-n1c(=O)on(C(=O)N(c2ccccc2)C(C)C)c1=O ... 0
CC(C)N(C(=O)n1oc(=O)n(C2CC2)c1=O)c1ccc(F)cc1F ... 6
COC(=O)CCCn1c(=O)on(C(=O)N(c2ccc(Cl)cc2)C(C)C)c1=O ... 0
CC(C)N(C(=O)n1oc(=O)n(CC(C)(C)C)c1=O)c1ccccc1 ... 0

With those in mind, consider the next compound.
What is its Plant response rating, Wheat for wheat? Entry: CCCCn1c(=O)on(C(=O)N(c2ccc(Cl)cc2)C(C)C)c1=O
0

====

test system: blackgrass; assay: Test B pre/postemergence blackgrass; type: in vivo, Alopecurus myosuroides; conditions: Postemergence, Rate 1000 g/ha; scale 0 to 10 (0 no effect, 10 complete control)
Recorded endpoint: Blackgrass plant response rating
Give bare numbers.

Some compounds with recorded Blackgrass plant response rating:
CCN(C(=O)n1oc(=O)n(N(C)c2ccccc2)c1=O)C1CCCCC1 ... 0
CCOP(=O)(OCC)C(C)n1c(=O)on(C(=O)N(c2ccccc2)C(C)C)c1=O (stereo not shown) ... 2
CCOP(=O)(Cn1c(=O)on(C(=O)N(c2ccc(F)cc2F)C(C)C)c1=O)OCC ... 7

// moving on: another record for Blackgrass plant response rating
Item CCOC(=O)CC(C(=O)OCC)n1c(=O)on(C(=O)N(c2ccc(Cl)cc2)C(C)C)c1=O (stereo not shown) has what recorded Blackgrass plant response rating?
4

====

test system: sugar beet; test: Test B pre/postemergence sugar beet; type: in vivo, Beta vulgaris; conditions: Preemergence, Rate 250 g/ha; scale 0 to 10, 0 is no effect, 10 is complete control
Kindly state Sugarbeets plant response rating for each of the entries shown.
Answers are plain numbers.

# example entries with known answers
CCN(C(=O)n1oc(=O)n(C(C)C)c1=O)c1nncs1 ... 0
CCN(C(=O)n1oc(=O)n(C2CCCCCC2)c1=O)C1CCCCC1 ... 0
CC(C)N(C(=O)n1oc(=O)n(C(C)(C)C)c1=O)c1ccccc1 ... 3

// each listed molecule needs a value for Sugarbeets plant response rating
1. CCN(C(=O)n1oc(=O)n(N(C)c2ccccc2)c1=O)C1CCCCC1
2. CC(C)N(C(=O)n1oc(=O)[nH]c1=O)c1ccc(F)cc1

0
0

Consider the following items and state reported Sugarbeets plant response rating for each.
1. CN(C(=O)n1oc(=O)n(Cc2ccccc2)c1=O)c1ccccc1
2. C=CCn1c(=O)on(C(=O)N(c2ccc(F)cc2)C(C)C)c1=O
3. CC(C)N(C(=O)n1oc(=O)n(C)c1=O)c1ccc(Cl)cc1
4. C=C(C)CCn1c(=O)on(C(=O)N(c2ccccc2)C(C)C)c1=O

1: 0; 2: 10; 3: 10; 4: 2

// query Sugarbeets plant response rating value for entry CC(C)N(C(=O)n1oc(=O)n(N(C)c2ccccc2)c1=O)c1ccc(F)cc1
0

====

Answer each item with its documented Wild oats plant response rating.
system: wild oat; experiment: Test B pre/postemergence wild oat; assay type: in vivo, Avena fatua; conditions: Rate 250 g/ha, Postemergence; scale 0 to 10, 0 is no effect, 10 is complete control
Give bare numbers.

CCOC(=O)CC(C(=O)OCC)n1c(=O)on(C(=O)N(c2ccc(Cl)cc2)C(C)C)c1=O (centres unmarked) ... 0

Respectfully, I request Wild oats plant response rating for each entry included below.
1. CC(C)N(C(=O)n1oc(=O)n(C(C)C2=NOCC2)c1=O)c1ccc(Cl)cc1 (racemic)
2. CC(C)N(C(=O)n1oc(=O)n(CC2=NOCCO2)c1=O)c1ccc(F)cc1
3. CC(C)N(C(=O)n1oc(=O)n(CCCCCl)c1=O)c1ccc(F)cc1

1. 2
2. 0
3. 0

If you can, please state the reported Wild oats plant response rating value of CC(C)N(C(=O)n1oc(=O)n(CCCCl)c1=O)c1ccccc1 .
0

====

system: blackgrass; experiment: Test B pre/postemergence blackgrass; format: in vivo, Alopecurus myosuroides; conditions: Postemergence, Rate 62 g/ha; scale of 0 to 10, 0 is no effect, 10 is complete control
Can you tell me Blackgrass plant response rating for the items I'm about to list?
Answers are plain numbers.

CC(C)N(C(=O)n1oc(=O)n(COCc2ccccc2)c1=O)c1ccccc1 [Compound 579] ... 0
Cc1noc(C)c1Cn1c(=O)on(C(=O)N(c2ccc(F)cc2F)C(C)C)c1=O [Compound 510] ... 5
CC(C)N(C(=O)n1oc(=O)n(CCC(F)(F)F)c1=O)c1ccc(Cl)cc1 [Compound 554] ... 0
COCCOCn1c(=O)on(C(=O)N(c2ccccc2)C(C)C)c1=O [Compound 564] ... 0
COCn1c(=O)on(C(=O)N(c2ccccc2)C(C)C)c1=O [Compound 562] ... 3

Recorded Blackgrass plant response rating for CCOCn1c(=O)on(C(=O)N(c2ccc(Cl)cc2)C(C)C)c1=O [Compound 534] , please?
0

====

Kindly supply the reported Soybean plant response rating values for the records listed here.
system: soybean; experiment: Test B pre/postemergence soybean; type: in vivo, Glycine max; details: Rate 62 g/ha, Postemergence; scale of 0 to 10 where 0 is no effect and 10 is complete control
Give bare numbers.

Consider the reported Soybean plant response rating for these molecules:
CC(C)N(C(=O)n1oc(=O)n(C(CF)CF)c1=O)c1ccc(F)cc1 ... 2
CC(C)N(C(=O)n1oc(=O)n(C2(C)CC2)c1=O)c1ccc(F)cc1 ... 4
CC(C)N(C(=O)n1oc(=O)n(N2CCOCC2)c1=O)c1ccc(F)cc1F ... 1
CCN(C(=O)n1oc(=O)n(N(C)c2ccccc2)c1=O)C1CCCCC1 ... 0

Attention now shifts to the item below.
Value lookup for Soybean plant response rating; key = CCN(C(=O)n1oc(=O)n(C)c1=O)C1CCCCC1
0

====

test system: sugar beet; experiment: Test B pre/postemergence sugar beet; assay type: in vivo, Beta vulgaris; details: Rate 500 g/ha, Preemergence; scale 0 to 10 (0 no effect, 10 complete control)
Provide the reported Sugarbeets plant response rating of each item.
One number for each entry.

Guide cases for Sugarbeets plant response rating, answers given:
CC(C)N(C(=O)n1oc(=O)n(C(C)C2=NOCC2)c1=O)c1ccc(Cl)cc1 (racemic) ... 5
CC(C)N(C(=O)n1oc(=O)n(CC2=NOCCO2)c1=O)c1ccc(F)cc1F ... 8
CC(C)N(C(=O)n1oc(=O)n(CC(F)F)c1=O)c1ccc(Cl)cc1 ... 4

Would you kindly look at the next entry?
Form field: reported Sugarbeets plant response rating of COC1CCC(Cn2c(=O)on(C(=O)N(c3ccc(F)cc3)C(C)C)c2=O)=NO1 (stereo not shown)
9

====

system: pigweed; test: Test B pre/postemergence pigweed; type: in vivo, Amaranthus retroflexus; conditions: Preemergence, Rate 500 g/ha; scale of 0 to 10 where 0 is no effect and 10 is complete control
Kindly supply the reported Plant response rating, Redroot pigweed values for the records listed here.
Numbers only.

Reference set (4 entries):
CC(C)N(C(=O)n1oc(=O)n(Cc2nnc(Cl)s2)c1=O)c1ccc(F)cc1 ... 0
CCOC(=O)CC(C(=O)OCC)n1c(=O)on(C(=O)N(c2ccc(F)cc2)C(C)C)c1=O (centres unmarked) ... 4
CC(C)N(C(=O)n1oc(=O)n(Cc2nnc(Cl)s2)c1=O)c1ccc(F)cc1F ... 4
Cc1noc(C)c1Cn1c(=O)on(C(=O)N(c2ccc(F)cc2)C(C)C)c1=O ... 8

Read the next record carefully.
I'd like to know its Plant response rating, Redroot pigweed. The molecule in question is Cc1nc(C)c(-n2c(=O)on(C(=O)N(c3ccccc3)C(C)C)c2=O)s1
0
